# systemUnderTest: T1, human CNTN4-rabbit Fc (human; rabbit, UniProt Q8IWV2 19-1000, limits assumed)
# T1 construct: not shown: rabbit Fc
# T1 sequence (looked up): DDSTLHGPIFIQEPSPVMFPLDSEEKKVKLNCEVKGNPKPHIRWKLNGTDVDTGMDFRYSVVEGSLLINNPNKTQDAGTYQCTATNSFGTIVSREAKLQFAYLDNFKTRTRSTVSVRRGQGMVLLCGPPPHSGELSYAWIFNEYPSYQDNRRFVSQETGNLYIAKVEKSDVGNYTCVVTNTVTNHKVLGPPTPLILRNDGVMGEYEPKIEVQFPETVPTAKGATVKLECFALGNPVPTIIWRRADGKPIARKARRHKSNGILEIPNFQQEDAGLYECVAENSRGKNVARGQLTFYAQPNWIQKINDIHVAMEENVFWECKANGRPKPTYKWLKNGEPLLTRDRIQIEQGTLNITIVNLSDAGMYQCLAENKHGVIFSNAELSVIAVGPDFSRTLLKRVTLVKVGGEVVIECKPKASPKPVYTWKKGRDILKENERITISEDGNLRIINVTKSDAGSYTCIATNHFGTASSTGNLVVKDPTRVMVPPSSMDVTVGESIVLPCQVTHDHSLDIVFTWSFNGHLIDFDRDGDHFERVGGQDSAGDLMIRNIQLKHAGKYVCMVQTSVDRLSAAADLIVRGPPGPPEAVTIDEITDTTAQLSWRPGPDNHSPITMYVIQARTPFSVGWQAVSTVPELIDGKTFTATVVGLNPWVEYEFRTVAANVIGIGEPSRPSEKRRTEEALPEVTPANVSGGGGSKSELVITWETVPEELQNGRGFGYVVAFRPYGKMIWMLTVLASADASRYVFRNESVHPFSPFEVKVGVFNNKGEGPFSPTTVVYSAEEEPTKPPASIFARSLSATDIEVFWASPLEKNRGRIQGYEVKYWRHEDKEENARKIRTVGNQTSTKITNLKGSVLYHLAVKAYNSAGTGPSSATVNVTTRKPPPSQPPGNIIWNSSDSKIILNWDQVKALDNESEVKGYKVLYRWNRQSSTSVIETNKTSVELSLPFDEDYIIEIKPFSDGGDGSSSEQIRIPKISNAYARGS
# protocolDescription: ELISA, plate coated with antigen-rabbit Fc, anti-human kappa-HRP
Readings of EC50 for the listed binders
# number only, unit pM dropped from output

The examples below pair each entry with its known result.
-- ask Param item = anti-CNTN4 scFv-hCk S137 (scFv, part only; not given: linker and kappa constant region, not shown: a dimerising Fc or GST) scFv, part: ALTQPSSVSANPGETVKITCSGGSSYGWYQQKSPGSAPVTVIYDNTNRPSNIPSRFSGSKSGSTNTLTITGVQAEDEAVYYCGGYDGSTDAFGAGTTLTVLAVTLDESEGGLQTPGGALSLVCKASGFTFSSFNMFWVRQAPGKGLEYVAEISGGGGSTWYAPAVKGRATISRDNGQSTVRLQLNNLRAEDTGTYYCAKSADTWSYGAATIDAWGHGTEVIVSS ; retrieve measured EC50.
-- reply 410

-- ask Another: anti-CNTN4 scFv-hCk S131 (scFv, part only; not given: linker and kappa constant region, not shown: a dimerising Fc or GST) scFv, part: ALTQPSSVSANLGGTVKITCSGGGSSYYGWYQQKSPGSAPVTLIYQNTNRPSNIPSRFSGSGSGSTGTLTITGVRAEDEAVYYCGGYDGSTDVFGAGTTLTVLAVTLDESEGGLQTPGGALSLVCKASGFTFSSFNMFWVRQAPGKGLEYVAEISGGGGSTWYAPAVKGRATISRDNGQSTVRLQLNNLRAEDTGTYYCAKSADTWSYGAATIDAWGHGTEVIVSS
-- reply 740

-- ask Another: anti-CNTN4 scFv-hCk S1 (scFv, part only; not given: linker and kappa constant region, not shown: a dimerising Fc or GST) scFv, part: ALTQPSSVSANPGETVKITCSGGSSYGWYQQKSPGSAPVTVIYDNTNRPSNIPSRFSGSKSGSTNTLTITGVRAEDEAVYFCGGYDSSIDAFGAGTTLTVLAVTLDESEGGLQTPGGALSLVCKASGFTFSSFNMFWVRQAPGKGLEYVAEISGGGGSTWYAPAVKGRATISRDNGQSTVRLQLNNLRAEDTGTYYCAKSADTWSYGAATIDAWGHGTEVIVSS
-- reply 4440

Shifting focus to the binder that follows.
-- ask Param item = anti-CNTN4 scFv-hCk S135 (scFv, part only; not given: linker and kappa constant region, V domains shown, not shown: another chain or arm of the molecule; a dimerising Fc or GST; small tags and cut ends) VL: ALTQPSSVSANPGETVKITCSGGGSSSYYGWYQQKSPGSAPVTVIYYNNRPSDIPSRFSGSGSGSTGTLTITGVRAEDEAVYYCGGYDGSTDVFGAGTTLTVL VH: AVTLDESEGGLQTPGGALSLVCKASGFTFSSFNMFWVRQAPGKGLEYVAEISGGGGSTWYAPAVKGRATISRDNGQSTVRLQLNNLRAEDTGTYYCAKSADTWSYGAATIDAWGHGTEVIVSS ; retrieve measured EC50.
-- reply 1060

Measured values drawn from patent US20240182563A1 for this set.
